- system: CD276, Q5ZPR3
- Sequence (Q5ZPR3 whole entry): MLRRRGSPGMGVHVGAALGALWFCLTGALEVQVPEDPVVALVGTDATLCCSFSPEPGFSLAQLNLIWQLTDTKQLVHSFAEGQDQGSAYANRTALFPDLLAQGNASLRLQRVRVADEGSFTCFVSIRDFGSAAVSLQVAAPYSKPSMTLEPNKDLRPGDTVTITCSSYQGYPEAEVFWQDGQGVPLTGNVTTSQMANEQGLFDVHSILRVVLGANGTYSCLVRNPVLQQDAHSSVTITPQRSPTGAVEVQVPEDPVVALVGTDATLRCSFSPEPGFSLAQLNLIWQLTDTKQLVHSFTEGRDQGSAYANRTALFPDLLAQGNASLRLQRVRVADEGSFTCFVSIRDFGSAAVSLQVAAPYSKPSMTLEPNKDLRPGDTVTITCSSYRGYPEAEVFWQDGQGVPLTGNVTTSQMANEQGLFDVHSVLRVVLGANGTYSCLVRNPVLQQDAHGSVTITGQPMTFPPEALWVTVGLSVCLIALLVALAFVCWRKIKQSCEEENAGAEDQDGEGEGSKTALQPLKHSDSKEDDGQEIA
Write down one outcome, taken from active, inactive

Per the assay record, what outcome was assigned to design_617_b3fadc1d-0db4-4da8-8433-818493aa2ab2_1042_dldesign_0_cycle1_af2pred (protein) MSAAEIIREALKLLKEAAKAAATDPAKAKELADKAIALGKENQGAALLLSNTARNLAATATPEEAAFLLEVAERARAVAEAL ?
inactive

Next binder: design_610_f34cc193-997c-4684-af32-2a8002718429_285_dldesign_0_cycle1_af2pred (protein) LAAEVAAAEAAAAAAAAAAKALGATATAAALRAMAEDAARSTPEEAAAARDFAEAMLTVLTARLAAAKAAAA
inactive

Check design_617_b3fadc1d-0db4-4da8-8433-818493aa2ab2_2293_dldesign_0_cycle1_af2pred (protein) AEEALKLLKEAKKKAEEALKLAEKGGDPEEIKALVNEALSLATKGSAQAVKHPEIAPLGNAVLGYAVDVAERVEELLKERE too.
inactive

Try design_391_ca6baf5d-2451-47ba-bffc-fc886679966a_206_dldesign_0_cycle1_af2pred (protein) DWQAVALQAAEAAAQAAKEDPENAALFNEAAHLLLLAVARPETALELTEKALKLAEKAAKTGSELAKKAYELTKEALELLKAA next.
inactive

Entry to check: design_623_6e2e8b1f-5d9a-4413-9869-27a184816b12_1758_dldesign_0_cycle1_af2pred (protein) AEKVKELAKKAEELAKKAEKAAKESLAKAEKYAAKADELAREVNREAQKVATSGEAGEALLKALEAQAKARKALAEAKAKAEA
inactive

Likewise for design_616_e8336982-fa4d-4d7c-b06f-9007953e1994_1846_dldesign_0_cycle1_af2pred (protein) AQAEKEAAAAKAKRLLDQLKEFGALAVTAAAASAQQGQAYLAMARQLAANAKEEAKKTGEEGKELAAQAEATLAAAEAGVAAALAAA ?
inactive

What do you have for design_619_5728adc2-0aea-404f-92dd-a4575c53f550_927_dldesign_0_cycle1_af2pred (protein) AAALDSARGEAAVTAAKLYGLAYKLDPELGAQAAAALAAILRDKATAVEGAKAAAAVAEKLKEKDPENAGELEKKLKELAEKLKAA ?
inactive

Same again, this time with design_610_f34cc193-997c-4684-af32-2a8002718429_1694_dldesign_0_cycle1_af2pred (protein) AAAAAELALRSAEALLRSARENAAAGTISPEGLRGAAEVIKDLARYAGELGGPEAAARAEELIAEADAVVA
inactive

And design_618_d4ffd631-0ea2-432e-ba0f-bd3d6297b2a0_220_dldesign_0_cycle1_af2pred (protein) DKEEAVKLAEEGAEVALKLADKRVGAVTAAAFRGLARSIRAAEDPEDIAKIAEVAKGMKAWAEAQLKATA ?
inactive

Proceed to design_622_fcc41892-afde-4fb9-b6e8-b664fffd6a75_1277_dldesign_0_cycle1_af2pred (protein) SEEIIKKAEEIKEKAEKLLKEAAKLTPEQQKAAIKEMSKNLGELTELAKTASPEELKVINEAMNAAAKASVALAAKAA
inactive

Moving on to design_620_fbd04095-bef7-46a9-992d-f2cb8915922f_687_dldesign_0_cycle1_af2pred (protein) ATAAEAAALRDAGVAAANSAAAAAKAGNTTAAGELLTEAVKLAAQLAALGDEAGAAEVRAAIAASSKTIIAAQAA
inactive

How about this binder: design_486_d4f32670-1303-4d79-8413-1b14cb3eff50_394_dldesign_0_cycle1_af2pred (protein) AEANVALGKRMLEAGKKLAEETKELAKKAKKGEDKEGAKEAAKVALAFAETLELVAEGVPEIAEELKKAAKELKEAAEKALKAAKAA
inactive

Another binder to look at: design_614_ef6b398b-10cb-4a07-8087-96dafb4f9c83_1163_dldesign_0_cycle1_af2pred (protein) EAAREAALALMNEALALLVEETGRDPRLAPALALMSKAVIEMAKDPEKGIELAEKAAEEAKKVDPEVGEKVKKLVEEAKKAVKA
inactive

Entry to check: design_616_e8336982-fa4d-4d7c-b06f-9007953e1994_177_dldesign_0_cycle1_af2pred (protein) AGQATYNAAKAMAKSAAAMYLAGKYEDAEKVYQVAVDLAQSLIADPASKAQGEKALAYAKETYAKAKAEAEKKAA
inactive

Field entry: design_619_5728adc2-0aea-404f-92dd-a4575c53f550_766_dldesign_0_cycle1_af2pred (protein) MLGAEWARQQARRTAERAAELLAADPAAGAAAFARARTIVELAKGIDPEVGKAAQAEVEAIEAQAKAAAAAA
active

Then this binder: design_615_ab801fab-270b-4f6a-b2b5-83c165df418c_2427_dldesign_0_cycle1_af2pred (protein) AMEAAKAAAKAAAAAAAAAGLTDLAAEIAAAAKEAEETGIEGANRLMGLAARYAVQHPALNAAMSALIEAAGAYIAEAA
inactive

Same for design_391_ca6baf5d-2451-47ba-bffc-fc886679966a_175_dldesign_0_cycle1_af2pred (protein) DEKLKKAEELAKQAAKATLTPTGKAEFDKLANEAMKLVSQLFKEDPAKGQKAAKALSEAIDQAKANAALAAAAA
inactive

Let us now turn to design_614_ef6b398b-10cb-4a07-8087-96dafb4f9c83_1491_dldesign_0_cycle1_af2pred (protein) EERLKEILKLIKEAKKALEESPQLAAQKLAEAAELASEFPEIAVAAVRAIAFAPNPERAKEALEEALKLAEEALKK
inactive

Entry to check: design_486_d4f32670-1303-4d79-8413-1b14cb3eff50_1391_dldesign_0_cycle1_af2pred (protein) DARLKKAAELLKKHTEAVLKGPVHPEAKLATAEVAIESAQGIYKAGADDAEVKAAAKEALAAAKELKERAEKELAAAEAAAAAA
inactive
